- Measured On: His6-AspH315–758 (human aspartate/asparagine-β-hydroxylase, AspH) (Homo sapiens, UniProt Q12797)
- Construct: N-Terminally His6-tagged human AspH315–758 (His6-AspH315–758) was produced in E. coli BL21 (DE3) cells; made in house; host or cells: E. coli BL21 (DE3), pET-28a(+) vector
- Sequence (Q12797 315-758): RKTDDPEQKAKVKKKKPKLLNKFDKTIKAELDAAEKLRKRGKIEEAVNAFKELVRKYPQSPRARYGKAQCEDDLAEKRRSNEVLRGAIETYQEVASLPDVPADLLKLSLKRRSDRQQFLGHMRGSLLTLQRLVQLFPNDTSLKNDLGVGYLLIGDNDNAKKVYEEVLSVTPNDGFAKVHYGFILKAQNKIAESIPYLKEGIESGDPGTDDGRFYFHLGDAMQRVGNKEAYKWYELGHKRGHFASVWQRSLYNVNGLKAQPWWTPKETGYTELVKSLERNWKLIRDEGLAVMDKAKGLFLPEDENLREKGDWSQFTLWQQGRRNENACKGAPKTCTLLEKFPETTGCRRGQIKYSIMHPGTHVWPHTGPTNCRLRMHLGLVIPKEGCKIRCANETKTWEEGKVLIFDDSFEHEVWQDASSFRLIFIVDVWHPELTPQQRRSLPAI
- Assay Procedure: SPE-MS AspH inhibition assay (LOPAC screen at fixed 20 μM and IC50 dose-response), hydroxylation of cyclic peptide hFX-CP101–119
- Assay type: biochemical
- Test Settings: LOPAC compound at fixed 20 uM; substrate conversion, plate 1
Structures can show the parent of a compound that is named as a salt.
Experimental Endpoint: Plate 1 (% conversion) (%)
Write the value in % as a bare number.

// known answers, use as guide
Compound: Nc1c[n+](N2CCOCC2)no1.[Cl-] [3-Morpholinosydnonimine hydrochloride]
Plate 1 (% conversion) [%]: 14.15
--
Compound: COc1cc(NS(C)(=O)=O)ccc1Nc1c2ccccc2nc2ccccc12 [Amsacrine hydrochloride]
Plate 1 (% conversion) [%]: 39.52
--
Compound: O=C(O)CCCCCCCC(=O)O
Plate 1 (% conversion) [%]: 32.14
--
Compound: CN(Cc1cnc2nc(N)nc(N)c2n1)c1ccc(C(=O)N[C@@H](CCC(=O)O)C(=O)O)cc1.O [Methotrexate hydrate]
Plate 1 (% conversion) [%]: 37.12

What Plate 1 (% conversion) value was documented for this compound, `C[C@@H](c1ncncc1F)[C@](O)(Cn1cncn1)c1ccc(F)cc1F` ?
38.95

Can you handle CCCC1O[C@@H]2C[C@H]3[C@@H]4CCC5=CC(=O)C=C[C@]5(C)[C@H]4[C@@H](O)C[C@]3(C)[C@]2(C(=O)CO)O1 (some centres unmarked) [Budesonide] next?
40.29

Can you handle Cl.O=C1NCCc2[nH]c(-c3ccncc3)cc21 [PHA 767491 hydrochloride] next?
41.82

Can you handle CC(C)C[C@H](NC(=O)[C@@H](O)[C@H](N)Cc1ccccc1)C(=O)O [Bestatin hydrochloride] next?
37.46

Can you handle `Cl.NC1(C(=O)O)CCCCC1` next?
35.52

Can you handle CCN1CCc2nc(N)oc2CC1.Cl.Cl [B-HT 933 dihydrochloride] next?
39.16

Can you handle `CCn1nc(C(=O)O)c(=O)c2cc3c(cc21)OCO3` next?
38.21

Can you handle CO[C@@]1(NC(=O)CSCC#N)C(=O)N2C(C(=O)O)=C(CSc3nnnn3C)CS[C@@H]21 [Cefmetazole sodium] next?
37.15

Can you handle `CC(=O)N[C@@H](CS)C(=O)O` next?
33.76

Can you handle NC(=O)c1cc[n+](CC2=C(C(=O)[O-])N3C(=O)[C@@H](NC(=O)C(c4ccccc4)S(=O)(=O)[O-])[C@H]3SC2)cc1.O.[Na+] (some centres unmarked) [Cefsulodin sodium salt hydrate] next?
14.14

Can you handle CO/N=C(\C(=O)N[C@@H]1C(=O)N2C(C(=O)O)=C(COC(C)=O)CS[C@H]12)c1csc(N)n1 [Cefotaxime sodium] next?
34.63

Can you handle COc1ccccc1N1CCN(CCN2C(=O)CC3(CCCC3)CC2=O)CC1.Cl.Cl [BMY 7378 dihydrochloride] next?
39.81

Can you handle CC(C)NC[C@H](O)COc1ccc(CC(N)=O)cc1 [S(-)-Atenolol] next?
37.79

###

- Measured On: His6-AspH315–758 (human aspartate/asparagine-β-hydroxylase, AspH) (Homo sapiens)
- Construct: N-Terminally His6-tagged human AspH315–758 (His6-AspH315–758) was produced in E. coli BL21 (DE3) cells; made in house; host or cells: E. coli BL21 (DE3), pET-28a(+) vector
- Assay Procedure: SPE-MS AspH inhibition assay (LOPAC screen at fixed 20 μM and IC50 dose-response), hydroxylation of cyclic peptide hFX-CP101–119
- Assay type: biochemical
- Test Settings: LOPAC compound at fixed 20 uM; plate 1, normalised to DMSO and 2,4-PDCA controls
Experimental Endpoint: Plate 1 (% inhibition) (%)
Write the value in % as a bare number.

// known answers, use as guide
Compound: COc1ccc2c(c[n+](C)c3c4cc5c(cc4ccc23)OCO5)c1OC [Chelerythrine chloride]
Display Unit: %
Plate 1 (% inhibition): 8.68

Compound: Cl.N=C(N)NN [Aminoguanidine hydrochloride]
Display Unit: %
Plate 1 (% inhibition): -12.95

Compound: Nc1ncnc2c1nc(Sc1ccc(Cl)cc1)n2C1OC2COP(=O)(O)OC2C1O (stereo in doubt) [8-(4-Chlorophenylthio)-cAMP sodium]
Display Unit: %
Plate 1 (% inhibition): -2.91

Compound: CCn1nc(C(=O)O)c(=O)c2cc3c(cc21)OCO3
Display Unit: %
Plate 1 (% inhibition): -6.95

Compound: COC(=O)C1=C(C)NC(C)=C(C(=O)OC(C)(C)CN(C)CCC(c2ccccc2)c2ccccc2)C1c1cccc([N+](=O)[O-])c1.COC(=O)C1=C(C)NC(C)=C(C(=O)OC(C)(C)CN(C)CCC(c2ccccc2)c2ccccc2)C1c1cccc([N+](=O)[O-])c1.Cl.Cl.O (stereo not shown) [Lercanidipine hydrochloride hemihydrate]
Display Unit: %
Plate 1 (% inhibition): 25.41

What Plate 1 (% inhibition) value was documented for this compound, CN(c1ccccc1CNc1nc(Nc2ccc3c(c2)CC(=O)N3)ncc1C(F)(F)F)S(C)(=O)=O.O [PF-431396 hydrate] ?
-15.66

Can you handle `Nc1nc(N)c2nc(CNc3ccc(C(=O)N[C@@H](CCC(=O)O)C(=O)O)cc3)cnc2n1` next?
-2.16

###

- Measured On: His6-AspH315–758 (human aspartate/asparagine-β-hydroxylase, AspH) (Homo sapiens)
- Construct: N-Terminally His6-tagged human AspH315–758 (His6-AspH315–758) was produced in E. coli BL21 (DE3) cells; made in house; host or cells: E. coli BL21 (DE3), pET-28a(+) vector
- Assay Procedure: SPE-MS AspH inhibition assay (LOPAC screen at fixed 20 μM and IC50 dose-response), hydroxylation of cyclic peptide hFX-CP101–119
- Assay type: biochemical
- Test Settings: LOPAC compound at fixed 20 uM; plate 1, normalised to DMSO and 2,4-PDCA controls
Counter-ions that a name gives are not always drawn.
Plate 1 (% inhibition) by entry:
Write the value in % as a bare number.

Compound: c1ccc2cc(-c3ncc[nH]3)ccc2c1 [Benazoline oxalate]
Measured On: His6-AspH315–758 (human aspartate/asparagine-β-hydroxylase, AspH) (Homo sapiens)
Display Unit: %
Plate 1 (% inhibition): 77.21

Compound: CCCCc1oc2ccccc2c1C(=O)c1cc(I)c(OCCN(CC)CC)c(I)c1 [Amiodarone hydrochloride]
Measured On: His6-AspH315–758 (human aspartate/asparagine-β-hydroxylase, AspH) (Homo sapiens)
Display Unit: %
Plate 1 (% inhibition): 32.10

Compound: CN/C(=N/CCSCc1nc[nH]c1C)NC#N [Cimetidine]
Measured On: His6-AspH315–758 (human aspartate/asparagine-β-hydroxylase, AspH) (Homo sapiens)
Display Unit: %
Plate 1 (% inhibition): -0.45

Compound: Cn1cnc([N+](=O)[O-])c1Sc1ncnc2nc[nH]c12 [Azathioprine]
Measured On: His6-AspH315–758 (human aspartate/asparagine-β-hydroxylase, AspH) (Homo sapiens)
Display Unit: %
Plate 1 (% inhibition): -17.98

Compound: CC(/C=C/c1cccc(Oc2ccc(F)cc2)c1)N(O)C(N)=O (stereo not drawn) [BWB70C]
Measured On: His6-AspH315–758 (human aspartate/asparagine-β-hydroxylase, AspH) (Homo sapiens)
Display Unit: %
Plate 1 (% inhibition): -3.19

Compound: Cl.Cl.Fc1ccc([C@@H]2CCNC[C@H]2COc2ccc3c(c2)OCO3)cc1.Fc1ccc([C@@H]2CCNC[C@H]2COc2ccc3c(c2)OCO3)cc1.O
Measured On: His6-AspH315–758 (human aspartate/asparagine-β-hydroxylase, AspH) (Homo sapiens)
Display Unit: %
Plate 1 (% inhibition): -22.48

// lookup Plate 1 (% inhibition) | system=His6-AspH315–758 (human aspartate/asparagine-β-hydroxylase, AspH) (Homo sapiens) | key= CN(C)CCC(c1ccc(Br)cc1)c1ccccn1.O=C(O)/C=C\C(=O)O (racemic) [(±)-Brompheniramine maleate]
8.96

Can you handle CCCCN(CCCC)CC(O)c1cc(Cl)cc2c1-c1ccc(Cl)cc1/C2=C/c1ccc(Cl)cc1 (stereo not drawn) [Lumefantrine] next?
-1.89

Can you handle CC(N)=O [Acetamide] next?
0.92
